Species: Mus musculus
Experiment: Minimum effective dose for immunostimulant activity in mice was determined
Type: functional
Conditions: read-out: MED
Listed here: items and their measured minimal effective dose.
Unit mg/kg implied. Number only.

Use these answered entries as a reference point.
- SMILES_DATA: "Cc1cc(Nc2ccc(OCC3CCCCC3)cc2)c2c(ccc3c[nH]nc32)n1"
  UNITS_LABEL: "mg/kg"
  minimal effective dose: 0.62
- SMILES_DATA: "COc1ccc(Nc2cc(C)nc3ccc4c[nH]nc4c23)cc1"
  UNITS_LABEL: "mg/kg"
  minimal effective dose: 16.7
- SMILES_DATA: "Cc1cc(NC2CCCCC2)c2c(ccc3c[nH]nc32)n1"
  UNITS_LABEL: "mg/kg"
  minimal effective dose: 1.85
- SMILES_DATA: "CCc1ccc(Nc2cc(C)nc3ccc4c[nH]nc4c23)cc1"
  UNITS_LABEL: "mg/kg"
  minimal effective dose: 12.5
- SMILES_DATA: "CCCCc1ccc(Nc2ccnc3ccc4c[nH]nc4c23)cc1"
  UNITS_LABEL: "mg/kg"
  minimal effective dose: 6.25
- SMILES_DATA: "Clc1ccc(Nc2ccnc3ccc4c[nH]nc4c23)cc1"
  UNITS_LABEL: "mg/kg"
  minimal effective dose: 12.5

[Q] Give the measured minimal effective dose of `Cc1cc(Nc2ccc(OCc3ccccc3)cc2)c2c(ccc3c[nH]nc32)n1` .
[A] 0.62

[Q] For `Cc1ccc(Nc2cc(C)nc3ccc4c[nH]nc4c23)cc1` then?
[A] 6.25

[Q] Please give the result for `CCCCOc1ccc(Nc2ccnc3ccc4c[nH]nc4c23)cc1` too.
[A] 3.13

[Q] And then `c1cc(Nc2ccc(OCC3CCCCC3)cc2)c2c(ccc3c[nH]nc32)n1` , what is it?
[A] 0.62

[Q] Entry to check: `CCCc1ccc(Nc2cc(C)nc3ccc4c[nH]nc4c23)cc1`
[A] 6.25

[Q] Now this one: `CCCCOc1ccc(Nc2cc(C)nc3ccc4c[nH]nc4c23)cc1`
[A] 1.85

[Q] Also `Cc1cc(Nc2ccc(Cl)cc2)c2c(ccc3c[nH]nc32)n1` ?
[A] 1.85

[Q] Query `Cc1cc(Nc2ccc(O)cc2)c2c(ccc3c[nH]nc32)n1` next
[A] 16.7
